Biological target: actKR (actinorhodin type II polyketide ketoreductase) (Streptomyces coelicolor, UniProt P16544, R38A)
Sequence (P16544 whole entry R38A): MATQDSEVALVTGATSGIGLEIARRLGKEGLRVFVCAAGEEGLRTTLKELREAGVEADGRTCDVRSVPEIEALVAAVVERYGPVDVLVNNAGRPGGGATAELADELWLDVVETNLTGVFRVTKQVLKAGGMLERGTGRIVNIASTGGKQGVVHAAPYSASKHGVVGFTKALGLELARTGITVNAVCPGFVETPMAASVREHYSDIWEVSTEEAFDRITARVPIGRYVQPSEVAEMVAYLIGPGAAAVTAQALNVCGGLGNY
Experiment: NADPH fluorescence titration
ENDPOINT_NAME: Kd (µM)
# output: bare number, implied unit µM

In: Any idea what its Kd is? The compound is NC(=O)C1=CN([C@@H]2O[C@H](COP(=O)(O)OP(=O)(O)OC[C@H]3O[C@@H](n4cnc5c(N)ncnc54)[C@H](OP(=O)(O)O)[C@@H]3O)[C@@H](O)[C@H]2O)C=CC1
Out: 4.3

====

ENDPOINT_NAME: pKd
Note: pKd values are expressed as the negative base-10 logarithm of concentration in M.

In: For UniProt P16544, provide pKd of NC(=O)C1=CN([C@@H]2O[C@H](COP(=O)(O)OP(=O)(O)OC[C@H]3O[C@@H](n4cnc5c(N)ncnc54)[C@H](OP(=O)(O)O)[C@@H]3O)[C@@H](O)[C@H]2O)C=CC1 [NADPH] please.
Out: 5.82
